# Tested Target: HLA-B*44:02
# Method Summary: IEDB peptide-MHC binding, purified MHC/competitive/radioactivity; filed as Kd, often an IC50 or EC50 that approximates it; bounds were set here for any values at or beyond the usual limits of such assays
# Reported Conditions: source organism: Dengue virus 4 Philippines/H241/1956
Assay Readout: Kd (nM)
Kindly answer with a numeric value in nM, unit omitted.

VEMGEAAAIF	12.9

Consider the record given below.
*Q* I have this sequence here, `IEREIPERSW` , and I need its recorded Kd.
*A* 61.6

---

# Tested Target: HLA-B*27:03
# Method Summary: IEDB peptide-MHC binding, purified MHC/competitive/fluorescence; filed as Kd, often an IC50 or EC50 that approximates it; bounds were set here for any values at or beyond the usual limits of such assays
# Reported Conditions: source organism: Araucaria virus
Assay Readout: Kd

*Q* I have this sequence here, `LYVAGVPEL` , and I need its recorded Kd.
*A* ≥ 20 µM

---

# Tested Target: HLA-B*39:01
# Method Summary: IEDB peptide-MHC binding, purified MHC/direct/fluorescence; filed as Kd, often an IC50 or EC50 that approximates it; bounds were set here for any values at or beyond the usual limits of such assays
# Reported Conditions: source organism: Vibrio parahaemolyticus RIMD 2210633
Assay Readout: Kd

*Q* I have this sequence here, `DTWHGFKNM` , and I need its recorded Kd.
*A* ≥ 20 µM

---

# Tested Target: HLA-B*15:17
# Method Summary: IEDB peptide-MHC binding, purified MHC/direct/fluorescence; filed as Kd, often an IC50 or EC50 that approximates it; bounds were set here for any values at or beyond the usual limits of such assays
# Reported Conditions: source organism: Camelpox virus M-96
Assay Readout: Kd

*Q* I have this sequence here, `IFLIITKVF` , and I need its recorded Kd.
*A* ≥ 20 µM

---

# Tested Target: HLA-A*01:01
# Method Summary: IEDB peptide-MHC binding, purified MHC/direct/fluorescence; filed as Kd, often an IC50 or EC50 that approximates it; bounds were set here for any values at or beyond the usual limits of such assays
# Reported Conditions: source organism: Pseudomonas aeruginosa
Assay Readout: pKd
Remember the convention: pKd equals -log10 of concentration in molar.

*Q* I have this sequence here, `FSDARLAKL` , and I need its recorded pKd.
*A* 5.14

---

# Tested Target: HLA-A*11:01
# Method Summary: IEDB peptide-MHC binding, purified MHC/competitive/radioactivity; filed as Kd, often an IC50 or EC50 that approximates it; bounds were set here for any values at or beyond the usual limits of such assays
# Reported Conditions: source organism: Mammarenavirus machupoense
pKd: −log10 of the molar value.
Assay Readout: pKd

FLMAFANQIH	≤ 4.16

*Q* I have this sequence here, `YVNHTLTGQH` , and I need its recorded pKd.
*A* ≤ 4.16

---

# Tested Target: HLA-A*03:01
# Method Summary: IEDB peptide-MHC binding, purified MHC/competitive/fluorescence; bounds were set here for any values at or beyond the usual limits of such assays
# Reported Conditions: source organism: Zaire ebolavirus
Assay Readout: pIC50
Remember the convention: pIC50 equals -log10 of concentration in molar.

Sample answers from the record:
MMVIFRLMR	6.74
AITAASLPK	5.16
RLLNLSGVN	4.36

*Q* I have this sequence here, `ILFQRTFSI` , and I need its recorded pIC50.
*A* 5.61

From: the Immune Epitope Database (IEDB)
